These entries and their values trace back to the supplement of paper PMC4466140.

study target: ScRvs167
assay: SPOT peptide array binding signal intensity (averaged, normalized) (arbitrary units (background-subtracted, floor 0; scale differs between SH3 domains)); higher = stronger binding of the SH3 domain to the peptide
Exercise: for every item that follows, state its recorded SPOT peptide array binding signal intensity.
Answers are plain numbers.

{"columns": ["binder", "readout value"],
 "data": [
  ["RKQRSIPLSPIVPES", 39.7],
  ["GPPPPLPPPLFPSSS", 32.5]
]}

// recorded SPOT peptide array binding signal intensity for `SSTPTTPERPKRKSG` : 902
